# TARGET OF ASSAY: JAK2 (Homo sapiens)
# Sequence (O60674 whole entry, species assumed): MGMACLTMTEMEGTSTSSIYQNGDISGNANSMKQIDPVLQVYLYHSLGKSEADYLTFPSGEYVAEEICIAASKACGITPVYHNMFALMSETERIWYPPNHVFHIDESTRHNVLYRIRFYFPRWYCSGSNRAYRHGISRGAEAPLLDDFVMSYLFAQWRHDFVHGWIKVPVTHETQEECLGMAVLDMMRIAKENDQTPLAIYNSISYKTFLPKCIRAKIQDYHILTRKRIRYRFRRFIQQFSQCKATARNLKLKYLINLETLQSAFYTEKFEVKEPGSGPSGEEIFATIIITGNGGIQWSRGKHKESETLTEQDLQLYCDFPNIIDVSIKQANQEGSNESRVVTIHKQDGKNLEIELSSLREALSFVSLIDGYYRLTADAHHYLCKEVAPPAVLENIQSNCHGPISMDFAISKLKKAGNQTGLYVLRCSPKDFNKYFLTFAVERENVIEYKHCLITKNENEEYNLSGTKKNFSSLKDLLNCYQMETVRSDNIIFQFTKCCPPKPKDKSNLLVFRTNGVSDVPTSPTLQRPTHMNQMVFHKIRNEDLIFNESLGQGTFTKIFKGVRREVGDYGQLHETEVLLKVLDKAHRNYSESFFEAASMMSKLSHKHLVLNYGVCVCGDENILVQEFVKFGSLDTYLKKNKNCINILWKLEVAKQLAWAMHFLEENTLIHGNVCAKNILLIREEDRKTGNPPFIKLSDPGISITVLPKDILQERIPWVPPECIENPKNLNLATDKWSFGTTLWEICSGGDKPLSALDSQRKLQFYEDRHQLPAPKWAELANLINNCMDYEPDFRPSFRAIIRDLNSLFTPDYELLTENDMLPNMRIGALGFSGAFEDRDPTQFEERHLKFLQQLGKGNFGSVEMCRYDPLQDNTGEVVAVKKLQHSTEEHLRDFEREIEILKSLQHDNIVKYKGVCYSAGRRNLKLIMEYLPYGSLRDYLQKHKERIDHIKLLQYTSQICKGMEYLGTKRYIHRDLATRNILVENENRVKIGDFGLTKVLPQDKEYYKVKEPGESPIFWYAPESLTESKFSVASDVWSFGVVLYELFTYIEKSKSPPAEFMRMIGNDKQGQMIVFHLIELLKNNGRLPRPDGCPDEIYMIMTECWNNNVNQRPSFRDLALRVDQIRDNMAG
# ASSAY COMMENT: Caliper Mobility Shift Assay, kinase inhibition
# Assay type: biochemical
# ASSAY CONTEXT: ATP by Km value
ENDPOINT LABEL: IC50 (nM)
A number alone suffices; assume nM.

Give the value of IC50 reported for the following: CCS(=O)(=O)N1CC(CC#N)(n2cc(-c3ncnc4[nH]ccc34)c3ccccc32)C1
1.1

Give the value of IC50 reported for the following: CS(=O)(=O)N1CC(CC#N)(n2cc(-c3ncnc4[nH]ccc34)c3ccccc32)C1
0.9

Give the value of IC50 reported for the following: CCOc1ccc2c(-c3ncnc4[nH]ccc34)cn(C3(CC#N)CN(S(=O)(=O)CC)C3)c2c1
2.8

Give the value of IC50 reported for the following: N#CCC1(n2cc(-c3ncnc4[nH]ccc34)c3ccccc32)CN(C(=O)[C@@H]2CCCN2)C1 (stereo in doubt)
692

Give the value of IC50 reported for the following: CCS(=O)(=O)N1CC(CC#N)(n2cc(-c3ncnc4[nH]ccc34)c3cc(OC)ccc32)C1
2.9

Give the value of IC50 reported for the following: CCS(=O)(=O)N1CC(CC#N)(n2cc(-c3ncnc4[nH]ccc34)c3ccc(C)cc32)C1
2.5

---

# TARGET OF ASSAY: JAK1 (Homo sapiens, UniProt P23458)
# Sequence (P23458 whole entry, species assumed): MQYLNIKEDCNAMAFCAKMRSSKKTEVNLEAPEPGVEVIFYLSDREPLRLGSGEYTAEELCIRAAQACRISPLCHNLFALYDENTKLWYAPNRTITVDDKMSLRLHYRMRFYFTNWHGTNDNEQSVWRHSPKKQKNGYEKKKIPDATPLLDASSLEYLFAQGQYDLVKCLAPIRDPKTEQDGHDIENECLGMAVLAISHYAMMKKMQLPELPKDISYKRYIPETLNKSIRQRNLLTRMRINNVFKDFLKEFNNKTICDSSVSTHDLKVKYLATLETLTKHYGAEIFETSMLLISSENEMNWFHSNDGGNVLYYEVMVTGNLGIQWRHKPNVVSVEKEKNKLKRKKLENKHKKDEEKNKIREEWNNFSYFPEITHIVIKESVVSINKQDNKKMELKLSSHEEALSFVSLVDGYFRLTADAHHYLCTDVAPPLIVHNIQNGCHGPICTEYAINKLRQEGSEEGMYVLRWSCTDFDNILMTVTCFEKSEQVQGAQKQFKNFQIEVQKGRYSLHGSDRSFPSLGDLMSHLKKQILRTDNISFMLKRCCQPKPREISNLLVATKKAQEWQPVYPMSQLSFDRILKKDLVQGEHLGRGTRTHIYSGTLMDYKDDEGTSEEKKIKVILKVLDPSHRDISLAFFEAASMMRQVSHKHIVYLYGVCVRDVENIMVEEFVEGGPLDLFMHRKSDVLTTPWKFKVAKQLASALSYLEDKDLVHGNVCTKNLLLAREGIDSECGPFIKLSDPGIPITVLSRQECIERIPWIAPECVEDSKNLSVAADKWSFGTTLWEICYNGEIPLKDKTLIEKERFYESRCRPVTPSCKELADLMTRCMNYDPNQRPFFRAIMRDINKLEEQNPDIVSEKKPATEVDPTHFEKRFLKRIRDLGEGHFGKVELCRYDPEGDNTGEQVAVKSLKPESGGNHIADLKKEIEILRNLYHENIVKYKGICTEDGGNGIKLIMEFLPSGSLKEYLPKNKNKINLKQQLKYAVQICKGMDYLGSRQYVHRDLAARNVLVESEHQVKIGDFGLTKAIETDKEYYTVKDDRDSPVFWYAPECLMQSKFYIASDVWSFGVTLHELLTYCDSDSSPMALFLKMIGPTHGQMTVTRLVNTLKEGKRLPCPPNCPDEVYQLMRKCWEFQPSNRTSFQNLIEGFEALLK
# ASSAY COMMENT: Caliper Mobility Shift Assay, kinase inhibition
# Assay type: biochemical
# ASSAY CONTEXT: ATP by Km value
So I've got a bunch of compounds here, and I need their IC50 values.
A number alone suffices; assume nM.

With JAK1 (Homo sapiens, UniProt P23458) as the test system, provide measured IC50 for this compound: CCS(=O)(=O)N1CC(CC#N)(n2cc(-c3ncnc4[nH]ccc34)c3ccc(F)cc32)C1
0.5

With JAK1 (Homo sapiens, UniProt P23458) as the test system, provide measured IC50 for this compound: CCS(=O)(=O)N1CC(CC#N)(n2cc(-c3ncnc4[nH]ccc34)c3c(F)ccc(F)c32)C1
10.5

With JAK1 (Homo sapiens, UniProt P23458) as the test system, provide measured IC50 for this compound: CS(=O)(=O)N1CC(CC#N)(n2cc(-c3ncnc4[nH]ccc34)c3ccc(F)c(F)c32)C1
4.5

With JAK1 (Homo sapiens, UniProt P23458) as the test system, provide measured IC50 for this compound: N#CCC1(n2cc(-c3ncnc4[nH]ccc34)c3ccccc32)CN(S(=O)(=O)N2CCCC2)C1
7

With JAK1 (Homo sapiens, UniProt P23458) as the test system, provide measured IC50 for this compound: CS(=O)(=O)N1CC(CC#N)(n2cc(-c3ncnc4[nH]ccc34)c3ccccc32)C1
8

With JAK1 (Homo sapiens, UniProt P23458) as the test system, provide measured IC50 for this compound: N#CCC1(n2cc(-c3ncnc4[nH]ccc34)c3ccccc32)CN(C(=O)[C@@H]2CCCN2)C1 (stereo in doubt)
300

With JAK1 (Homo sapiens, UniProt P23458) as the test system, provide measured IC50 for this compound: CCS(=O)(=O)N1CC(CC#N)(n2cc(-c3ncnc4[nH]ccc34)c3cc(F)cc(F)c32)C1
30.5

With JAK1 (Homo sapiens, UniProt P23458) as the test system, provide measured IC50 for this compound: CCS(=O)(=O)N1CC(CC#N)(n2cc(-c3ncnc4[nH]ccc34)c3ccccc32)C1
11

With JAK1 (Homo sapiens, UniProt P23458) as the test system, provide measured IC50 for this compound: CN(C)S(=O)(=O)N1CC(CC#N)(n2cc(-c3ncnc4[nH]ccc34)c3ccccc32)C1
15

With JAK1 (Homo sapiens, UniProt P23458) as the test system, provide measured IC50 for this compound: CCS(=O)(=O)N1CC(CC#N)(n2cc(-c3ncnc4[nH]ccc34)c3cc(OC)ccc32)C1
23

With JAK1 (Homo sapiens, UniProt P23458) as the test system, provide measured IC50 for this compound: CC(C)S(=O)(=O)N1CC(CC#N)(n2cc(-c3ncnc4[nH]ccc34)c3ccc(Cl)cc32)C1
6.5

With JAK1 (Homo sapiens, UniProt P23458) as the test system, provide measured IC50 for this compound: CCS(=O)(=O)N1CC(CC#N)(n2cc(-c3ncnc4[nH]ccc34)c3cc(F)ccc32)C1
3.6

With JAK1 (Homo sapiens, UniProt P23458) as the test system, provide measured IC50 for this compound: CCCCS(=O)(=O)N1CC(CC#N)(n2cc(-c3ncnc4[nH]ccc34)c3ccccc32)C1
22

---

# TARGET OF ASSAY: UniProt O60674
# ASSAY COMMENT: Caliper Mobility Shift Assay, kinase inhibition
# Type: biochemical
# ASSAY CONTEXT: ATP by Km value
ENDPOINT LABEL: IC50 (nM)
A number alone suffices; assume nM.

Give the value of IC50 reported for the following: CCS(=O)(=O)N1CC(CC#N)(n2cc(-c3ncnc4[nH]ccc34)c3c(F)ccc(F)c32)C1
4.6

Give the value of IC50 reported for the following: CCS(=O)(=O)N1CC(CC#N)(n2cc(-c3ncnc4[nH]ccc34)c3ccc(F)cc32)C1
0.61

Give the value of IC50 reported for the following: CCS(=O)(=O)N1CC(CC#N)(n2cc(-c3ncnc4[nH]ccc34)c3ccc(Br)cc32)C1
8.3

Give the value of IC50 reported for the following: N#CCC1(n2cc(-c3ncnc4[nH]ccc34)c3ccccc32)CN(S(=O)(=O)N2CCCC2)C1
3.5

Give the value of IC50 reported for the following: CCS(=O)(=O)N1CC(CC#N)(n2cc(-c3ncnc4[nH]ccc34)c3ccc(CC(F)(F)F)cc32)C1
1.4

Give the value of IC50 reported for the following: CCS(=O)(=O)N1CC(CC#N)(n2cc(-c3ncnc4[nH]ccc34)c3cc(F)cc(F)c32)C1
11.6

Give the value of IC50 reported for the following: CS(=O)(=O)N1CC(CC#N)(n2cc(-c3ncnc4[nH]ccc34)c3ccc(F)c(F)c32)C1
6.3

Give the value of IC50 reported for the following: CC(C)S(=O)(=O)N1CC(CC#N)(n2cc(-c3ncnc4[nH]ccc34)c3ccc(Cl)cc32)C1
2.4

Give the value of IC50 reported for the following: CCCCS(=O)(=O)N1CC(CC#N)(n2cc(-c3ncnc4[nH]ccc34)c3ccccc32)C1
7.1

Give the value of IC50 reported for the following: CCCS(=O)(=O)N1CC(CC#N)(n2cc(-c3ncnc4[nH]ccc34)c3c(F)cc(F)cc32)C1
28.4

Give the value of IC50 reported for the following: CN(C)S(=O)(=O)N1CC(CC#N)(n2cc(-c3ncnc4[nH]ccc34)c3ccccc32)C1
1.5

Give the value of IC50 reported for the following: CCS(=O)(=O)N1CC(CC#N)(n2cc(-c3ncnc4[nH]ccc34)c3cc(C(F)(F)F)ccc32)C1
2.4

Give the value of IC50 reported for the following: CCS(=O)(=O)N1CC(CC#N)(n2cc(-c3ncnc4[nH]ccc34)c3ccc(Cl)cc32)C1
0.72

Give the value of IC50 reported for the following: CCS(=O)(=O)N1CC(CC#N)(n2cc(-c3ncnc4[nH]ccc34)c3cc(F)ccc32)C1
1

Give the value of IC50 reported for the following: CCS(=O)(=O)N1CC(CC#N)(n2cc(-c3ncnc4[nH]ccc34)c3ccc(CC#N)cc32)C1
41.6

---

# TARGET OF ASSAY: JAK3 (Homo sapiens)
# Sequence (P52333 1-1124): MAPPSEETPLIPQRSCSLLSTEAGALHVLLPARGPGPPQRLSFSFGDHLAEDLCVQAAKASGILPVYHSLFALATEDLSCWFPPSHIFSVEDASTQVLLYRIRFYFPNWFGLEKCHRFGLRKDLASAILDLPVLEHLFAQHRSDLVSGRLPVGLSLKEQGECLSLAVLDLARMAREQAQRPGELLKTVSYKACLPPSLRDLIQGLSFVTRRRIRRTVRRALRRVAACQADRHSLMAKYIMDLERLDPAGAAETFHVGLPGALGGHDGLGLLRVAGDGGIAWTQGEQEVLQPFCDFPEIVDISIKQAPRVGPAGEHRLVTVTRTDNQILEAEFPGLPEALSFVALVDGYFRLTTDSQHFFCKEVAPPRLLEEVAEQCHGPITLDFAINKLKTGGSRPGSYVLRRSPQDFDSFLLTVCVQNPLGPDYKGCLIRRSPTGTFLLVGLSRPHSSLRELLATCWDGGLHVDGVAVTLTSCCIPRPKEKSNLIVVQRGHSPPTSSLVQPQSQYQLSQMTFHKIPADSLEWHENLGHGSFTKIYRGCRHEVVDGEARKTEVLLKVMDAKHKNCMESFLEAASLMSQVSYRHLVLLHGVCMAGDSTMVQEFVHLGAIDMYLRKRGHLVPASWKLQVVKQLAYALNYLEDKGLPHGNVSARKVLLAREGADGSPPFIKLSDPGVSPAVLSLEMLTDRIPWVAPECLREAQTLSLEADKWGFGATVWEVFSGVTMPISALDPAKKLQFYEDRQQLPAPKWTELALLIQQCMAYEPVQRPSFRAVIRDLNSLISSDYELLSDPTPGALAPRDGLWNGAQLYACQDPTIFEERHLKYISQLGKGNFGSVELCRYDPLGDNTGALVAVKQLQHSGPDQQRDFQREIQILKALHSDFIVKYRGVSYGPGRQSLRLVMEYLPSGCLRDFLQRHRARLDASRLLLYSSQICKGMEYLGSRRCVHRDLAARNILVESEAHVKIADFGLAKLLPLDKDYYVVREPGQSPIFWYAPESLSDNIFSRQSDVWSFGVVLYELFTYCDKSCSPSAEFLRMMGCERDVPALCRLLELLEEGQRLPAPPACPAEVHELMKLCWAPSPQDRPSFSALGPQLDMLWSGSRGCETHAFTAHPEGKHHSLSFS
# ASSAY COMMENT: Caliper Mobility Shift Assay, kinase inhibition
# Format: biochemical
# ASSAY CONTEXT: ATP by Km value
So I've got a bunch of compounds here, and I need their IC50 values.
A number alone suffices; assume nM.

With JAK3 (Homo sapiens) as the test system, provide measured IC50 for this compound: CCS(=O)(=O)N1CC(CC#N)(n2cc(-c3ncnc4[nH]ccc34)c3cc(F)cc(F)c32)C1
58

With JAK3 (Homo sapiens) as the test system, provide measured IC50 for this compound: CCS(=O)(=O)N1CC(CC#N)(n2cc(-c3ncnc4[nH]ccc34)c3ccc(Br)cc32)C1
21

With JAK3 (Homo sapiens) as the test system, provide measured IC50 for this compound: CCS(=O)(=O)N1CC(CC#N)(n2cc(-c3ncnc4[nH]ccc34)c3ccccc32)C1
100

With JAK3 (Homo sapiens) as the test system, provide measured IC50 for this compound: CCS(=O)(=O)N1CC(CC#N)(n2cc(-c3ncnc4[nH]ccc34)c3ccc(CC#N)cc32)C1
172

With JAK3 (Homo sapiens) as the test system, provide measured IC50 for this compound: CCS(=O)(=O)N1CC(CC#N)(n2cc(-c3ncnc4[nH]ccc34)c3ccc(C)cc32)C1
36

With JAK3 (Homo sapiens) as the test system, provide measured IC50 for this compound: CCS(=O)(=O)N1CC(CC#N)(n2cc(-c3ncnc4[nH]ccc34)c3ccc(CC(F)(F)F)cc32)C1
17

With JAK3 (Homo sapiens) as the test system, provide measured IC50 for this compound: CCS(=O)(=O)N1CC(CC#N)(n2cc(-c3ncnc4[nH]ccc34)c3cc(C(F)(F)F)ccc32)C1
232

With JAK3 (Homo sapiens) as the test system, provide measured IC50 for this compound: CN(C)S(=O)(=O)N1CC(CC#N)(n2cc(-c3ncnc4[nH]ccc34)c3ccccc32)C1
116

Where these numbers come from: patent US10385056B2
